system.tested: Serine/threonine-protein kinase D3 (Homo sapiens);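 further: values are mean inhibition figures against PRKD3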
condition.label: at 1 µM
Below is a list of entries, each paired with its recorded inhibition value.
metric.name: inhibition (%)

structure	observed.measurement
O=C(Nc1n[nH]c2nc(-c3ccco3)c(Br)cc12)C1CC1	4.81
CCn1c(-c2nonc2N)nc2c(N3CCCC3)nccc21	0.75
COc1ccc(COc2ccc(Cc3cnc(N)nc3N)cc2OC)cc1	2.56
COc1cc2ncn(-c3cc(OCc4ccccc4Cl)c(C(N)=O)s3)c2cc1OC	0.33
Fc1cccc(COc2ccc(Nc3ncnc4cc(-c5ccc[nH]5)sc34)cc2Cl)c1	-2.13
Cc1ccc(NC(=O)c2ccnc(N3CCCC3)c2)cc1-c1ccc(C(=O)NCC2CC2)cc1	10.1
CCn1c(-c2nonc2N)nc2cncc(C(=O)N3CC[C@H](N)C3)c21	7.57
NS(=O)(=O)c1ccc(N/N=C2\C(=O)Nc3ccc(C(=O)NCCc4c[nH]cn4)cc32)cc1	38.6
CCn1c(-c2nonc2N)nc2ccncc21	2.17
CNC(=O)c1cncc(/C=C/c2c(Cl)cccc2Cl)c1	4.45
NC(=O)c1cccc(Nc2nccc(Nc3cccc4[nH]ncc34)n2)c1	4.5
COc1cccc(-n2ncc3c(N/N=C/c4cccc(F)c4)ncnc32)c1	-0.79
Cc1nn(C)c2cc(N(C)c3ccnc(Nc4cccc(S(N)(=O)=O)c4)n3)ccc12	3.56
COc1ccc(-c2ccncc2)cc1C(N)=O	11.1
CCn1c(-c2nonc2N)nc2cnc(Oc3cccc(NC(=O)c4ccc(OCCN5CCOCC5)cc4)c3)cc21	2.69
c1cnn2ncc(-c3ccnc(Nc4ccc5c(c4)OCCO5)n3)c2c1	50.5
Cc1ccc(C(=O)NC2CCCCC2)cc1-c1ccc(C(=O)NCC2CC2)cc1	2.53
COc1cc(C)c(NC(=O)CN(C)C)cc1Nc1nc(Nc2cccc(F)c2C(N)=O)c2cc[nH]c2n1	38.4
COc1cc2ncn(-c3cc(O[C@H](C)c4ccccc4Cl)c(C(N)=O)s3)c2cc1OC	2.62
CS(=O)(=O)CCNCc1ccc(-c2ccc3ncnc(Nc4ccc(OCc5ccccc5)c(Cl)c4)c3c2)o1	-0.48
COc1cc(C=NNc2ncnc3c2cnn3-c2ccccc2)ccc1O	3

This collection of values is drawn from ChEMBL document CHEMBL1961873.
